Recorded LD50 for the following molecules
Assay: acute toxicity, intraperitoneal (lethal doses)
Format: in vivo, mouse
Settings: mouse, in vivo, ip; male mice
Structures can show the parent of a compound that is named as a salt.
Readout name: LD50

# Molecule, Readout name, Reported measurement
records = [
    ("CC(=O)Nc1c(Cl)cc(C(=O)C(C)NC(C)C)cc1Cl (centres unmarked) [CRL 41 220, hydrochloride]", "LD50", "~500 mg/kg"),
    ("CC(=O)Nc1ccc(C(=O)C(C)N2CCCC2)cc1Cl (centres unmarked) [CRL 41 219, hydrochloride]", "LD50", "~200 mg/kg"),
]

----------
Tested on: male mice
Assay: acute toxicity, intraperitoneal (lethal doses)
Type: in vivo, mouse
Details: i.p.
Structures can show the parent of a compound that is named as a salt.
Readout name: LD-30

# Compound, Target under test, Reported measurement
rows = [
    ("CC(=O)Nc1c(Cl)cc(C(=O)C(C)NC(C)C)cc1Cl (stereo not shown) [CRL 41 220, hydrochloride]", "male mice", "about 250 mg/kg"),
    ("CC(=O)Nc1ccc(C(=O)C(C)N2CCCC2)cc1Cl (stereo not shown) [CRL 41 219, hydrochloride]", "male mice", "~128 mg/kg"),
    ("CC(=O)Nc1ccc(C(=O)C(C)N(C)C)cc1 (stereo not shown) [CRL 41 232]", "male mice", "about 250 mg/kg"),
]
